Source listed as the supplement of paper PMC10307832.

# System: A-427
# measurement description: relative viability (nuclei count vs DMSO), 5 days (fraction); higher = more cells survive
# study conditions: first compound 0.02 µM
Overview of reported relative viability across a group of compounds:
result type: relative viability

* CC(=O)O[C@@]12CO[C@@H]1C[C@H](O)[C@@]1(C)C(=O)[C@H](O)C3=C(C)[C@@H](OC(=O)[C@H](O)[C@@H](NC(=O)OC(C)(C)C)c4ccccc4)C[C@@](O)([C@@H](OC(=O)c4ccccc4)[C@H]21)C3(C)C [Docetaxel] + C[C@@H](Oc1cc(-c2cnn(C3CCNCC3)c2)cnc1N)c1c(Cl)ccc(F)c1Cl [Crizotinib] (partner 1 µM) | 0.167
* CC(=O)O[C@@]12CO[C@@H]1C[C@H](O)[C@@]1(C)C(=O)[C@H](O)C3=C(C)[C@@H](OC(=O)[C@H](O)[C@@H](NC(=O)OC(C)(C)C)c4ccccc4)C[C@@](O)([C@@H](OC(=O)c4ccccc4)[C@H]21)C3(C)C [Docetaxel] + NC(=O)Nc1cc(-c2cccc(F)c2)sc1C(=O)N[C@H]1CCCNC1 [AZD7762] (partner 0.2 µM) | 0.222
* CC(=O)O[C@@]12CO[C@@H]1C[C@H](O)[C@@]1(C)C(=O)[C@H](O)C3=C(C)[C@@H](OC(=O)[C@H](O)[C@@H](NC(=O)OC(C)(C)C)c4ccccc4)C[C@@](O)([C@@H](OC(=O)c4ccccc4)[C@H]21)C3(C)C [Docetaxel] + N=C(N)NC(=N)NCCc1ccccc1 [Phenformin] (partner 250 µM) | 0.12
* CC(=O)O[C@@]12CO[C@@H]1C[C@H](O)[C@@]1(C)C(=O)[C@H](O)C3=C(C)[C@@H](OC(=O)[C@H](O)[C@@H](NC(=O)OC(C)(C)C)c4ccccc4)C[C@@](O)([C@@H](OC(=O)c4ccccc4)[C@H]21)C3(C)C [Docetaxel] + O=C(c1cc(Cc2n[nH]c(=O)c3ccccc23)ccc1F)N1CCN(C(=O)C2CC2)CC1 [Olaparib] (partner 8 µM) | 0.198
* CC(=O)O[C@@]12CO[C@@H]1C[C@H](O)[C@@]1(C)C(=O)[C@H](O)C3=C(C)[C@@H](OC(=O)[C@H](O)[C@@H](NC(=O)OC(C)(C)C)c4ccccc4)C[C@@](O)([C@@H](OC(=O)c4ccccc4)[C@H]21)C3(C)C [Docetaxel] + Nc1ncn([C@H]2C[C@H](O)[C@@H](CO)O2)c(=O)n1 [Decitabine] (partner 2 µM) | 0.222
